System: JAK1-dependent STAT6 phosphorylation downstream of IL-13 stimulation in TF-1 human erythroleukemia cells
Assay: JAK1 pathway assay in TF-1 cells (IL-13-pSTAT6, MSD)
Assay type: cell-based
Details: TF-1 cells, read-out: IL13-pSTAT6 EC50_TF-1
Description: JAK1 Pathway Assay in Cell Lines was Carried Out as Follows: Inhibitor potency (EC50) was determined in cell-based assays designed to measure JAK1 dependent STAT phosphorylation. […] Test compounds were serially diluted 1:2 in DMSO and then diluted 1:50 in medium just before use. […] Then, cells were stimulated with human recombinant cytokine at their respective EC90 concentrations, as previously determined for each individual lot. […]
pEC50: −log10 of the molar value.
REPORTED PROPERTY: pEC50

- COMPOUND: "CN1C[C@@H]2CN(C(=O)Cn3cc(NC(=O)c4cnn5cccnc45)c(-c4cc(Cl)ccc4OC(F)F)n3)C[C@]2(c2ccccc2)C1 [Example 44]"
  DATA VALUE: 8.17
- COMPOUND: "CN1CC[C@@H]2[C@@H](CCN2C(=O)Cn2cc(NC(=O)c3cnn4cccnc34)c(-c3cc(Cl)ccc3OC(F)F)n2)C1 [Example 45]"
  DATA VALUE: 8.15

---

Target: isolated recombinant JAK1 kinase domain (Homo sapiens (Human), UniProt P23458)
Sequence (P23458 875-1153): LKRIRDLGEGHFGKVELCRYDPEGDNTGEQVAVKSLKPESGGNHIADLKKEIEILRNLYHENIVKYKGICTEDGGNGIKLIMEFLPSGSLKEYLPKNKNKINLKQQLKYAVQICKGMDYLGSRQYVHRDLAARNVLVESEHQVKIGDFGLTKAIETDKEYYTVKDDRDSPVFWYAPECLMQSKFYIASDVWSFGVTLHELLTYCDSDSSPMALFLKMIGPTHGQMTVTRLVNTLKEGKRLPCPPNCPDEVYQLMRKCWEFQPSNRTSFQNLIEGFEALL
Assay: JAK1 enzyme assay (Caliper LabChip, peptide phosphorylation)
Assay type: biochemical
Conditions: isolated recombinant JAK1 kinase domain, 25 μM ATP
REPORTED PROPERTY: Ki (nM)

- RECORD SMILES: "CNC(=O)[C@@H]1CCCN1C1CCN(C(=O)Cn2cc(NC(=O)c3cnn4cccnc34)c(-c3cc(Cl)ccc3OC(F)F)n2)CC1"
  Ki (nM): 0.53

[a] CN(CCOc1ccccc1Br)C1CCN(C(=O)Cn2cc(NC(=O)c3cnn4cccnc34)c(-c3cc(Cl)ccc3OC(F)F)n2)CC1
[b] O=C(Nc1cn(CC(=O)N2CCC(CN3CCOCC3)CC2)nc1-c1cc(Cl)ccc1OC(F)F)c1cnn2cccnc12
[c] CN(Cc1ccccc1)C1CCN(C(=O)Cn2cc(NC(=O)c3cnn4cccnc34)c(-c3cc(Cl)ccc3OC(F)F)n2)CC1
[in] Put these in order: smallest Ki first, largest last. Form field (ranking): labels in requested order.
[out] b, c, a
(b: 0.4 nM, c: 0.79 nM, a: 1.45 nM)

---

Biological target: isolated recombinant JAK2 kinase domain (Homo sapiens (Human), UniProt O60674)
Sequence (O60674 849-1124): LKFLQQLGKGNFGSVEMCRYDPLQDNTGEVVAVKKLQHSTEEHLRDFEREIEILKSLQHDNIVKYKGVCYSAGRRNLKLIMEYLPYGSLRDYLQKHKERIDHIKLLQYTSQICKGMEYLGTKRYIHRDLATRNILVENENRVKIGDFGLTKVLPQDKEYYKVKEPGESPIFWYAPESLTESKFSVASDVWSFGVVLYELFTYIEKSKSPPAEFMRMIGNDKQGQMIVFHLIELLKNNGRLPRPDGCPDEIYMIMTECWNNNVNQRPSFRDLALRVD
Test: JAK2 enzyme assay (Caliper LabChip, peptide phosphorylation)
Conditions: 25 μM ATP
pKi: −log10 of the molar value.
REPORTED PROPERTY: pKi

Please review the following examples before continuing.
- MOLECULE: "O=C1CCC(Cn2cc(NC(=O)c3cnn4cccnc34)c(-c3cc(Cl)ccc3OC(F)F)n2)O1 (stereo not shown)"
  pKi: 9.48
- MOLECULE: "CS(=O)(=O)CCN1C[C@@H]2CN(C(=O)Cn3cc(NC(=O)c4cnn5cccnc45)c(-c4cc(Cl)ccc4OC(F)F)n3)C[C@@H]2C1"
  pKi: 9.28

[A] O=C(Nc1cn(CC(=O)N2CCC(N3CCOCC3)CC2)nc1-c1cc(Cl)ccc1OC(F)F)c1cnn2cccnc12
[B] Nc1nn2cccnc2c1C(=O)Nc1cn(C2CCN(CCCCOCCc3ccccc3)CC2)nc1-c1cc(Cl)ccc1OC(F)F
[in] Given A and given B , which shows the smaller recorded pKi? Answer by quoting the chosen item's label.
[out] A
